ASSAY_INFO: Solubility C (saturated concentration at 5° C.) of compound in low-polarity solvent and product εC
Format: physicochemical
SETUP_CONDITIONS: in Isopar M, at 5° C.
Each entry below carries its reported Solubility.
QUANTITY_MEASURED: Solubility (mM)

INSERT INTO assay_data (molecule, quantity_measured, uom, recorded_measurement) VALUES
  ('CCCCC(CC)COC(=O)c1ccc(N=Nc2cc(C#N)c(N=Nc3ccc(N(CC(CC)CCCC)CC(CC)CCCC)cc3NC(C)=O)s2)cc1 (stereo not shown)', 'Solubility', 'mM', 44),
  ('CCCCC(CC)COC(=O)c1ccc(N=Nc2cc(C#N)c(N=Nc3ccc(N(CC(CC)CCCC)CC(CC)CCCC)cc3C)s2)cc1 (stereo not shown)', 'Solubility', 'mM', 160),
  ('CCCCC(CC)COC(=O)C(C#N)=Cc1sc(N=Nc2cc(OC)c(N(CC(CC)CCCC)CC(CC)CCCC)cc2NC(C)=O)nc1Cl (stereo not shown)', 'Solubility', 'mM', 64),
  ('CCCCc1ccc(N=Nc2cc(C#N)c(N=Nc3cc(OC)c(N(CC(CC)CCCC)CC(CC)CCCC)cc3NC(C)=O)s2)cc1 (stereo not shown)', 'Solubility', 'mM', 150);

* * *

ASSAY_INFO: Absorption-maximum wavelength λmax, molar extinction coefficient ε and solution colour in each solvent
Format: physicochemical
SETUP_CONDITIONS: tetradecane, at absorption-maximum wavelength
QUANTITY_MEASURED: ε

INSERT INTO results (compound, quantity_measured, recorded_measurement) VALUES
  ('CCCCC(CC)COC(=O)c1ccc(N=Nc2cc(C#N)c(N=Nc3ccc(N(CC(CC)CCCC)CC(CC)CCCC)cc3NC(C)=O)s2)cc1 (stereo not drawn) [Compound 8]', 'ε', '79000 L/mol/cm'),
  ('CCCCc1ccc(N=Nc2cc(C#N)c(N=Nc3cc(OC)c(N(CC(CC)CCCC)CC(CC)CCCC)cc3NC(C)=O)s2)cc1 (stereo not drawn) [Compound 3]', 'ε', '73000 L/mol/cm'),
  ('CCCCC(CC)CN(CC(CC)CCCC)c1ccc(/N=N/c2sc(N=Nc3ccc(C(=O)OCC(C)C)cc3)cc2C#N)c(C(C)C)c1 (stereo not drawn) [Compound 4]', 'ε', '64000 L/mol/cm'),
  ('CCCCC(CC)CNc1ccc(NCC(CC)CCCC)c2c1C(=O)c1ccccc1C2=O (stereo not drawn) [Comparative example compound 1, reference compound]', 'ε', '17000 L/mol/cm'),
  ('CCCCC(CC)COC(=O)c1ccc(N=Nc2cc(C#N)c(N=Nc3ccc(N(CC(CC)CCCC)CC(CC)CCCC)cc3C)s2)cc1 (stereo not drawn) [Compound 6]', 'ε', '65000 L/mol/cm'),
  ('CCCCC(CC)CN(CC(CC)CCCC)c1ccc(N=Nc2sc(N=Nc3ccc(C(=O)OCC(C)C)cc3)cc2C#N)c(CC)c1 (stereo not drawn) [Compound 2]', 'ε', '54000 L/mol/cm');

* * *

ASSAY_INFO: Absorption-maximum wavelength λmax, molar extinction coefficient ε and solution colour in each solvent
Assay type: physicochemical
SETUP_CONDITIONS: n-decane
Each entry below carries its reported Absorption-maximum wavelength.
QUANTITY_MEASURED: Absorption-maximum wavelength (nm)

INSERT INTO results (compound, quantity_measured, recorded_measurement) VALUES
  ('C=CCn1c(N=Nc2ccc(N(CCC)CCC)cc2NC(C)=O)nc(C#N)c1C#N [Comparative example compound 2, reference compound]', 'Absorption-maximum wavelength', 512),
  ('CCCCc1ccc(N=Nc2cc(C#N)c(N=Nc3cc(OC)c(N(CC(CC)CCCC)CC(CC)CCCC)cc3NC(=O)CC)s2)cc1 (stereo not shown) [Compound 13]', 'Absorption-maximum wavelength', 667),
  ('CCCCC(CC)CN(CC(CC)CCCC)c1ccc(N=Nc2sc(C=C(C#N)C#N)c(Cl)c2C#N)c(NC(=O)C(CC)CCCC)c1 (stereo not shown) [Compound 11]', 'Absorption-maximum wavelength', 642),
  ('CCCCC(CC)COC(=O)c1ccc(N=Nc2cc(C#N)c(N=Nc3ccc(N(CC(CC)CCCC)CC(CC)CCCC)cc3C)s2)cc1 (stereo not shown) [Compound 6]', 'Absorption-maximum wavelength', 633),
  ('CCCCOc1ccc(N=Nc2sc(N=Nc3ccc(N(CC(CC)CCCC)CC(CC)CCCC)cc3Cl)nc2C)cc1 (stereo not shown) [Compound 14]', 'Absorption-maximum wavelength', 546),
  ('CCCCc1ccc(N=Nc2cc(C#N)c(N=Nc3cc(OC)c(N(CC(CC)CCCC)CC(CC)CCCC)cc3NC(C)=O)s2)cc1 (stereo not shown) [Compound 3]', 'Absorption-maximum wavelength', 667),
  ('CCCCc1ccc(N=Nc2cc(C#N)c(N=Nc3cc(OC)c(N(CC(CC)CCCC)CC(CC)CCCC)cc3C)s2)cc1 (stereo not shown) [Compound 7]', 'Absorption-maximum wavelength', 640),
  ('CCCCC(CC)CN(CC(CC)CCCC)c1cc(NC(C)=O)c(N=Nc2sc(C(=O)OCC)c(C)c2C(=O)OCC)cc1OC (stereo not shown) [Compound 12]', 'Absorption-maximum wavelength', 582),
  ('CCCCC(CC)COC(=O)C(C#N)=Cc1sc(N=Nc2cc(OC)c(N(CC(CC)CCCC)CC(CC)CCCC)cc2NC(C)=O)nc1Cl (stereo not shown) [Compound 10]', 'Absorption-maximum wavelength', 656),
  ('CCCCCc1ccc(N=Nc2cc(C#N)c(/N=N/c3cc(OC)c(N(CC(CC)CCCC)CC(CC)CCCC)cc3NC(C)=O)s2)cc1 (stereo not shown) [Compound 5]', 'Absorption-maximum wavelength', 667);
